- Target: Peptidyl-prolyl cis-trans isomerase Mip (Chlamydia pneumoniae, UniProt Q9Z7P3)
- Sequence (Q9Z7P3 whole entry): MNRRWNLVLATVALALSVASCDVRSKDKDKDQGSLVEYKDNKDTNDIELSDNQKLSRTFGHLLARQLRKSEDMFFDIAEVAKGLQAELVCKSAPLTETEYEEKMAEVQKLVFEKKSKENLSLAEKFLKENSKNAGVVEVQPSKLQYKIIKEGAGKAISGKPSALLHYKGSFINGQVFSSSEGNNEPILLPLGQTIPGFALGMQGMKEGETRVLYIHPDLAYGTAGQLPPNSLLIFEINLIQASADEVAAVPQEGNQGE
- Assay comment: Displacement of 5-(3-(4-(((5S,6S)-10-(3,5-dichlorophenylsulfonyl)-2-oxo-5-vinyl-3,10-diazabicyclo[4.3.1]decan-3-yl)methyl)-1H-1,2,3-triazol-1-yl)propylcarbamoyl)-2-(6-(dimethylamino)-3-(dimethyliminio)-3,10-dihydroanthracen-9-yl)benzoate from Chlamydia pneumoniae Mip after 30 mins by fluorescence polarization assay
Quantity kind: Ki
Put down the number, then write its unit next to it.

**Query** // returns reported Ki for input CC[C@H]1CN(Cc2ccccn2)C(=O)[C@@H]2CCC[C@H]1N2S(=O)(=O)c1cc(Cl)cc(Cl)c1
**Result** 0.399 µM

Please look at the following molecule next.
**Query** // returns reported Ki for input C=C[C@H]1CN(Cc2ccco2)C(=O)[C@@H]2CCC[C@H]1N2S(=O)(=O)c1cc(Cl)cc(Cl)c1
**Result** 0.315 µM

###

- Assay comment: Displacement of 5-(3-(4-(((5S,6S)-10-(3,5-dichlorophenylsulfonyl)-2-oxo-5-vinyl-3,10-diazabicyclo[4.3.1]decan-3-yl)methyl)-1H-1,2,3-triazol-1-yl)propylcarbamoyl)-2-(6-(dimethylamino)-3-(dimethyliminio)-3,10-dihydroanthracen-9-yl)benzoate from Candida albicans FKBP12 after 30 mins by fluorescence polarization assay
Quantity kind: pKi
Keep it numeric: pKi is minus log10 of the concentration in mol/L.

As a guide, the following entries are already answered.
**Query** // returns reported pKi for input C=C[C@H]1CN(Cc2ccccn2)C(=O)[C@@H]2CCC[C@H]1N2S(=O)(=O)c1ccc(-c2ncccn2)cc1
**Result** 7.28

**Query** // returns reported pKi for input C=C[C@H]1CN(Cc2ccco2)C(=O)[C@@H]2CCC[C@H]1N2S(=O)(=O)c1cc(Cl)cc(Cl)c1
**Result** 5.83

---
**Query** // returns reported pKi for input CC[C@H]1CN(Cc2ccccn2)C(=O)[C@@H]2CCC[C@H]1N2S(=O)(=O)c1cc(Cl)cc(Cl)c1
**Result** 7.40

###

- Assay comment: Displacement of 5-(3-(4-(((5S,6S)-10-(3,5-dichlorophenylsulfonyl)-2-oxo-5-vinyl-3,10-diazabicyclo[4.3.1]decan-3-yl)methyl)-1H-1,2,3-triazol-1-yl)propylcarbamoyl)-2-(6-(dimethylamino)-3-(dimethyliminio)-3,10-dihydroanthracen-9-yl)benzoate from Chlamydia trachomatis Mip after 30 mins by fluorescence polarization assay
Entries and their Ki values follow.
A number alone suffices; assume µM.

**Query** // returns reported Ki for input C=C[C@H]1CN(Cc2ccco2)C(=O)[C@@H]2CCC[C@H]1N2S(=O)(=O)c1cc(Cl)cc(Cl)c1
**Result** 1.82

---
**Query** // returns reported Ki for input CC[C@H]1CN(Cc2ccccn2)C(=O)[C@@H]2CCC[C@H]1N2S(=O)(=O)c1cc(Cl)cc(Cl)c1
**Result** 1.81

###

- Target: UniProt:Q70YI1
- Sequence (Q70YI1 21-233 limits assumed): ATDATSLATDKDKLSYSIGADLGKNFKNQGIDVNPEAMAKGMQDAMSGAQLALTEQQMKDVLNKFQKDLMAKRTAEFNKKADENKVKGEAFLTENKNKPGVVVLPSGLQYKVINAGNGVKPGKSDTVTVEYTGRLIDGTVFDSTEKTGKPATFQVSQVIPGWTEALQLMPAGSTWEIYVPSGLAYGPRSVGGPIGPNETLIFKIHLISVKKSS
Entries and their Ki values follow.
A number alone suffices; assume µM.

**Query** Under UniProt:Q70YI1: Ki value of CC[C@H]1CN(Cc2ccccn2)C(=O)[C@@H]2CCC[C@H]1N2S(=O)(=O)c1cc(Cl)cc(Cl)c1 ?
**Result** 0.598

Please look at the following molecule next.
**Query** Under UniProt:Q70YI1: Ki value of C=C[C@H]1CN(Cc2ccco2)C(=O)[C@@H]2CCC[C@H]1N2S(=O)(=O)c1cc(Cl)cc(Cl)c1 ?
**Result** 6.59

Data origin: ChEMBL document CHEMBL4043294
